MEASURED_ON: Shiga toxin 2 (Escherichia coli O157:H7) (UniProt P09385+P09386)
ASSAY_NOTES: E. coli 0.157:H7 Shiga Toxin SOP - stx2 screening assay
Assay type: functional
Set-up: scale not given: direction of the effect not stated beside the values
EXPERIMENTAL_CONDITIONS: 30 µM
READOUT_LABEL: Percent Effect (%)

{"COMPOUND": "C=Cc1ccc(C(=O)N2CCCC(Nc3ccc(OC)cc3)C2)cc1 (stereo unspecified)", "MEASURED_ON": "Shiga toxin 2 (Escherichia coli O157:H7) (UniProt P09385+P09386)", "READOUT_LABEL": "Percent Effect", "OUTPUT_UNIT": "%", "REPORTED_RESULT": -6.01}
{"COMPOUND": "Cc1n[nH]c(C2CN(C(=O)CCc3ccsc3)CCO2)n1 (stereo unspecified)", "MEASURED_ON": "Shiga toxin 2 (Escherichia coli O157:H7) (UniProt P09385+P09386)", "READOUT_LABEL": "Percent Effect", "OUTPUT_UNIT": "%", "REPORTED_RESULT": -2.19}
{"COMPOUND": "CC(C)c1nccn1C1CCCN(C(=O)c2cnc[nH]2)C1 (stereo unspecified)", "MEASURED_ON": "Shiga toxin 2 (Escherichia coli O157:H7) (UniProt P09385+P09386)", "READOUT_LABEL": "Percent Effect", "OUTPUT_UNIT": "%", "REPORTED_RESULT": -3.33}
{"COMPOUND": "Cc1nnc2n1CCN(C(=O)c1cc(Cl)c(Cl)n1C)C2", "MEASURED_ON": "Shiga toxin 2 (Escherichia coli O157:H7) (UniProt P09385+P09386)", "READOUT_LABEL": "Percent Effect", "OUTPUT_UNIT": "%", "REPORTED_RESULT": 8.23}
{"COMPOUND": "O=C1CCSCC(C(=O)N2CCCC2)N1 (stereo unspecified)", "MEASURED_ON": "Shiga toxin 2 (Escherichia coli O157:H7) (UniProt P09385+P09386)", "READOUT_LABEL": "Percent Effect", "OUTPUT_UNIT": "%", "REPORTED_RESULT": -6.39}
{"COMPOUND": "Clc1cc(CN2CCCC2Cn2cncn2)c2ncccc2c1 (stereo unspecified)", "MEASURED_ON": "Shiga toxin 2 (Escherichia coli O157:H7) (UniProt P09385+P09386)", "READOUT_LABEL": "Percent Effect", "OUTPUT_UNIT": "%", "REPORTED_RESULT": 6.1}
{"COMPOUND": "CC(=O)NC1CCCN(C(=O)NCc2cccnc2-n2cccn2)C1 (stereo unspecified)", "MEASURED_ON": "Shiga toxin 2 (Escherichia coli O157:H7) (UniProt P09385+P09386)", "READOUT_LABEL": "Percent Effect", "OUTPUT_UNIT": "%", "REPORTED_RESULT": -14.7}
{"COMPOUND": "O=C(NCCOCC(F)(F)F)c1ccc(-c2ccco2)[nH]c1=O", "MEASURED_ON": "Shiga toxin 2 (Escherichia coli O157:H7) (UniProt P09385+P09386)", "READOUT_LABEL": "Percent Effect", "OUTPUT_UNIT": "%", "REPORTED_RESULT": 20.7}
{"COMPOUND": "CN(C)C(=O)COCc1cncc2c1CCN(Cc1nccn1C)C2", "MEASURED_ON": "Shiga toxin 2 (Escherichia coli O157:H7) (UniProt P09385+P09386)", "READOUT_LABEL": "Percent Effect", "OUTPUT_UNIT": "%", "REPORTED_RESULT": -47.9}
{"COMPOUND": "c1cnnc(N2CCCC2CNCc2nc(-c3ccsc3)no2)c1 (stereo unspecified)", "MEASURED_ON": "Shiga toxin 2 (Escherichia coli O157:H7) (UniProt P09385+P09386)", "READOUT_LABEL": "Percent Effect", "OUTPUT_UNIT": "%", "REPORTED_RESULT": -0.726}
{"COMPOUND": "O[C@H]1CCN(Cc2ccoc2)[C@H]1Cc1cccnc1", "MEASURED_ON": "Shiga toxin 2 (Escherichia coli O157:H7) (UniProt P09385+P09386)", "READOUT_LABEL": "Percent Effect", "OUTPUT_UNIT": "%", "REPORTED_RESULT": -6}
